- tgt: alpha2B receptor (Homo sapiens, UniProt P18089)
- Construct: expressed in transfected cells; host or cells: NIH-3T3 cells
- Sequence (P18089 1-450): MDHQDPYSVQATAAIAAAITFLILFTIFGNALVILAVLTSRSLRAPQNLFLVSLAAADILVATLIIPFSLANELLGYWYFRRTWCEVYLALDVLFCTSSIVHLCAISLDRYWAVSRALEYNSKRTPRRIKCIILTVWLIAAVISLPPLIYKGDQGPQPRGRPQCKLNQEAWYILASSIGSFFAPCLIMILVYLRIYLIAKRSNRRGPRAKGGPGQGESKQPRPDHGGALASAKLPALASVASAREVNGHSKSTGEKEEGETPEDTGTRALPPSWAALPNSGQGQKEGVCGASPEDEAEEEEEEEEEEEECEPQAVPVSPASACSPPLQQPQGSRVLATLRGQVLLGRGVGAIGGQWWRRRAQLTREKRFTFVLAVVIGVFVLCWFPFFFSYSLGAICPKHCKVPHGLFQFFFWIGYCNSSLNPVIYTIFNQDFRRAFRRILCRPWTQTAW
- test_summary: Receptor Selection and Amplification Technology (RSAT) assay, Alpha 2B
- Format: cell-based
- condition_description: ratio of maximal effect to that of standard full agonist brimonidine (UK14304)
measure: Alpha 2B IA (intrinsic activity)

Please fill in: Alpha 2B IA (intrinsic activity) reported for O=C(NCCF)NC(Cc1ccccc1)c1ccccc1 (centres unmarked) = 0.96

Please fill in: Alpha 2B IA (intrinsic activity) reported for O=C(NCCF)NC(Cc1ccccc1)c1ccc(F)cc1 (centres unmarked) = 0.71

* * *

Below is a list of entries, each paired with its recorded Alpha 2A IA (intrinsic activity) value.
- tgt: alpha2A receptor (Homo sapiens)
- Construct: expressed in transfected cells; host or cells: NIH-3T3 cells
- Sequence (P08913 whole entry): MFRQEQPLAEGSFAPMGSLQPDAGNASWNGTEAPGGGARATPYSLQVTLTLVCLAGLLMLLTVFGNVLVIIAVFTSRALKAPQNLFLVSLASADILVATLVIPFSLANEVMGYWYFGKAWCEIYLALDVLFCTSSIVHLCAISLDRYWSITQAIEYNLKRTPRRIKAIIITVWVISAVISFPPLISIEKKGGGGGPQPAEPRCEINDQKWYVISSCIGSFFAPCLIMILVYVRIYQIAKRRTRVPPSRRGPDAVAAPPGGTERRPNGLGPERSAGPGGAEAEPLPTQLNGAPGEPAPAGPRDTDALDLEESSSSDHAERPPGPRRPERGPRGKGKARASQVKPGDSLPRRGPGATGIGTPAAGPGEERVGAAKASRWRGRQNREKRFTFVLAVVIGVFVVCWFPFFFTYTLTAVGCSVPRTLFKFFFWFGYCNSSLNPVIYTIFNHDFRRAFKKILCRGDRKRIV
- test_summary: Receptor Selection and Amplification Technology (RSAT) assay, Alpha 2A
- Type: cell-based
- condition_description: ratio of maximal effect to that of standard full agonist brimonidine (UK14304)
Write the number on its own, no unit after it.

• Cc1cccc(C(Cc2ccncc2)NC(=O)NCCF)c1 (stereo not shown) = 0.44
• O=C(NCCF)NC(Cc1ccncc1)c1cccc(Cl)c1 (stereo not shown) = 0.57
• Cc1cccc(CC(NC(=O)NCCF)c2cccc(Cl)c2)c1 (stereo not shown) = 0.35

Lab note: next compound to report on.
Entry O=C(NCCF)NC(Cc1ccccc1)c1cccs1 (stereo not shown) , alpha2A receptor (Homo sapiens) data, Alpha 2A IA (intrinsic activity) value: 0.35

* * *

- tgt: alpha2C receptor (Homo sapiens)
- Construct: expressed in transfected cells; host or cells: NIH-3T3 cells
- Sequence (P18825 whole entry): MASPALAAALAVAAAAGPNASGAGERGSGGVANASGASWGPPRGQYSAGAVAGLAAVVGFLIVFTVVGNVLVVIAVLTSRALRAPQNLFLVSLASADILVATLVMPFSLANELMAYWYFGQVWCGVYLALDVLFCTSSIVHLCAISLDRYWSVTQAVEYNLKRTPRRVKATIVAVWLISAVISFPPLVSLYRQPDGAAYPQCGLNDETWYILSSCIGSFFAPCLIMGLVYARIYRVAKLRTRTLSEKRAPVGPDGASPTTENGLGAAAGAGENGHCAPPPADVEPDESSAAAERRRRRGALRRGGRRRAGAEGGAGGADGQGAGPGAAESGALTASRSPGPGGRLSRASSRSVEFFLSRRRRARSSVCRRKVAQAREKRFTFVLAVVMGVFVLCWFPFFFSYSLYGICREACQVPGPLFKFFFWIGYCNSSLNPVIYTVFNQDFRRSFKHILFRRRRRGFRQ
- test_summary: Receptor Selection and Amplification Technology (RSAT) assay, Alpha 2C
- Format: cell-based
- condition_description: ratio of maximal effect to that of standard full agonist brimonidine (UK14304)
Below is a list of entries, each paired with its recorded Alpha 2C IA (intrinsic activity) value.
Write the number on its own, no unit after it.

Before answering, review these 3 worked examples.
* O=C(NCCF)NC(Cc1ccccc1)c1ccccc1 (centres unmarked) | 0.32
* O=C(NCCF)NC(Cc1ccccc1)c1ccccc1Cl (centres unmarked) | 0.34
* O=C(NCCF)NC(Cc1ccccc1)c1cccs1 (centres unmarked) | 0.35

Entry Cc1ccccc1CC(NC(=O)NCCF)c1cccc(Cl)c1 (centres unmarked) , alpha2C receptor (Homo sapiens) data, Alpha 2C IA (intrinsic activity) value: 0.38

Entry COc1ccccc1C(Cc1ccccc1)NC(=O)NCCF (centres unmarked) , alpha2C receptor (Homo sapiens) data, Alpha 2C IA (intrinsic activity) value: 0.42
